Entry source: paper PMC4469273

Please go through the items and note down their Mean fluorescence intensity (×10^4± SEM), Compound.
- System: HUVEC
- METHOD NOTES: Cytotoxicity assay
- Format: cell-based, human
- MEASUREMENT SETUP: 10 μmol/L, PI fluorescence, N = 3

Worked set:
| MOLECULE | ENDPOINT VALUE |
| --- | --- |
| COc1ccc(C2=NN(c3ccc(S(N)(=O)=O)cc3)C(c3ccc4c(c3)OCO4)C2)cc1 (stereo not drawn) | 2.8 ± 0.1 ×10^4 |
| COCCOc1ccc(C2=NN(c3ccc(S(N)(=O)=O)cc3)C(c3ccc(Cl)cc3)C2)cc1 (stereo not drawn) | 2.1 ± 0.2 ×10^4 |
| NS(=O)(=O)c1ccc(N2N=C(c3ccccc3)CC2c2ccc3c(c2)OCO3)cc1 (stereo not drawn) | 3.9 ± 0.2 ×10^4 |
| COc1ccc(C2=NN(c3ccc(S(N)(=O)=O)cc3)C(c3ccccc3)C2)cc1 (stereo not drawn) | 2.5 ± 0.4 ×10^4 |
| COc1ccc(C2CC(c3ccccc3)=NN2c2ccc(S(N)(=O)=O)cc2)cc1OC (stereo not drawn) | 4.0 ± 0.4 ×10^4 |

I need Mean fluorescence intensity (×10^4± SEM), Compound for every entry listed below, if you could help.
1. COc1ccc(C2CC(c3ccccc3)=NN2c2ccc(S(N)(=O)=O)cc2)cc1 (stereo not drawn)
2. COc1ccc(C2C3Cc4ccccc4C3=NN2c2ccc(S(N)(=O)=O)cc2)cc1 (stereo not drawn)
3. COc1ccc(C2=NN(c3ccc(S(N)(=O)=O)cc3)C(c3ccc(OC)c(OC)c3)C2)cc1 (stereo not drawn)
4. COc1ccc(C2C(C)C(c3ccccc3)=NN2c2ccc(S(N)(=O)=O)cc2)cc1 (stereo not drawn)

Key:
["2.1 ± 0.3 ×10^4", "2.8 ± 0.09 ×10^4", "1.4 ± 0.2 ×10^4", "2.6 ± 0.01 ×10^4"]
